test: Solubility in PBS
readout_name: solubility (µM)

>  <chemical_structure>
CC(=O)[C@H]1CC[C@H]2[C@@H]3CCC4=CC(=O)CC[C@]4(C)[C@H]3CC[C@]12C

>  <value>
8

$$$$

###

test: Human plasma protein binding (Rapid Equilibrium Dialysis)
Format: in vitro ADME
measurement_context: pH 7.2, RED, 4 h at 37 °C
Here the recorded fraction unbound at 4 h, 5 μM is given for each entry.

>  <molecule>
CCN(CC)c1ccc(/C=C/c2cc[n+](CCCCCCCCCC[n+]3ccc(/C=C/c4ccc(N(CC)CC)cc4)c(C)c3)cc2C)cc1 [YAT2150]

>  <fraction unbound at 4 h, 5 μM>
0.003

$$$$
>  <molecule>
O=C1NC(=O)C(c2ccccc2)(c2ccccc2)N1 [Phenytoin]

>  <fraction unbound at 4 h, 5 μM>
0.167

$$$$

These measurements were taken from paper PMC11514582.
